B1: LINE1-full (parent)
chain: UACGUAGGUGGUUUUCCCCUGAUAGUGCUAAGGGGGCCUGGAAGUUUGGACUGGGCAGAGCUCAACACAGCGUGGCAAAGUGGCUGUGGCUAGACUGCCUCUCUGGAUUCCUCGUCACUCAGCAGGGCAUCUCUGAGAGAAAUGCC

# Variants of: B1
# MEASUREMENT DESCRIPTION: self-cleavage, relative activity (ratio to wild type); higher = more cleavage; in vitro, sequencing; the parent is a self-cleaving ribozyme
Note that class boundaries on self-cleavage are bucket A = under 0.2, bucket B = from 0.2 up to 1, bucket C = 1 and over

Exam item: Textbook exercise: identify the category of the variant given here, U46A A79U , according to its measured value.
Marked response: bucket C
